- assayed_system: T1, Monomeric 8-histidine tagged human EGFRvIII extracellular domain (human, UniProt P00533 298-645)
- T1 construct: Analyte in all SPR assays; not shown: 8-histidine tag
- test: SPR, captured by anti-mouse Fc, 37 C
- Description: To generate human antibodies against EGFRvIII, transgenic AlivaMab mice (Ablexis LLC, San Francisco, Calif.) were immunized with alternating schedule of paraformaldehyde-fixed rat glioblastoma cell line expressing EGFRvIII, F98-npEGFRvIII (American Type Culture Collection, Manassas, Va.) and peptides (SEQ ID NO: 227: […]) directed to the junction region in EGFRvIII. […] Affinity of anti-EGFRvIII antibodies towards human EGFRvIII was measured at 37° C.
pKd: −log10 of the molar value.

binder | pKd
20B9 (antibody, V domains shown, Hybridoma supernatant (AlivaMab mouse); captured/detected via mouse Fc) VH: QVTLKESGPVLVKPTETLTLTCTVSGFSLSNARMGVSWIRQPPGKALEWLGHIFSTDEKSYSTSLRGRITISKDTSRGLVVLTLTNMDPVDTATYYCARDSSNYEGYFDFWGPGFLVTVSS VL: EIVMTQSPATLSVSPGERATLSCRVSQSIGANLAWYQQKFGQAPRLLIYGASTRATGIPVRFSGGGSGTEFTLTISSLQSEDFAIYSCQQYIYWPFTFGPGTTVDIK | 7.49
32G8 (antibody, V domains shown, Hybridoma supernatant (AlivaMab mouse); captured/detected via mouse Fc) VH: EVNLVESGGGLVKPGGSLRLSCEASGFTFSYAWMSWVRQAPGKGLEWVGRIKSITDGGVIDYAAPVRNRCTISRDDSRNTLYLEMHSLKTEDTAVYYCTTIPGNDDFDMWGQGRMVTVSS VL: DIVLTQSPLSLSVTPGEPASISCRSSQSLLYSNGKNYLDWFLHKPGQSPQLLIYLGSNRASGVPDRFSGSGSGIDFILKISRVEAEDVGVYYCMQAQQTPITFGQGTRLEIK | 5.75
